- targetDesc: Variovorax paradoxus CL14 MarR_73 (Variovorax paradoxus)
- Sequence (C5CSP2 entry or part of it): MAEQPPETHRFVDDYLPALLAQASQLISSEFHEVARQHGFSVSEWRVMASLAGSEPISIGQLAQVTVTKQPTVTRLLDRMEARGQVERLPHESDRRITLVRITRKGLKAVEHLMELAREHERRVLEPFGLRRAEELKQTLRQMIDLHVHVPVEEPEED
- experimentSummary: biochemical
- Type: binding
- experimentalConditions: ITC, 25 °C, 20 mM HEPES pH 7.4, 50 mM NaCl, 0.5% DMSO; mean of two measurements ± standard error
observedProperty: N (ligand binding stoichiometry to the MarR monomer)
Response field accepts a number only; no unit should be typed.

So what does the record say about N (ligand binding stoichiometry to the MarR monomer) for "O=C(O)Cc1c[nH]c2ccccc12" ?
0.732

So what does the record say about N (ligand binding stoichiometry to the MarR monomer) for "O=C(O)c1ccccc1O" ?
0.90

So what does the record say about N (ligand binding stoichiometry to the MarR monomer) for "Nc1c(Cl)c(Cl)nc(C(=O)O)c1Cl" ?
0.96

So what does the record say about N (ligand binding stoichiometry to the MarR monomer) for "O=C(O)c1c[nH]c2ccccc12" ?
0.67

So what does the record say about N (ligand binding stoichiometry to the MarR monomer) for "O=C(O)CCCc1c[nH]c2ccccc12" ?
0.80

So what does the record say about N (ligand binding stoichiometry to the MarR monomer) for "O=C(O)Cc1cccc2ccccc12" ?
0.74

So what does the record say about N (ligand binding stoichiometry to the MarR monomer) for "O=C(O)CCc1c[nH]c2ccccc12" ?
0.81

Taken from paper PMC9613470.
